Tested on: DU145 (prostate cancer)
protocol: Effect of compounds on tumor cell lines (assay of Latham et al.), DU145
Assay type: cell-based
run.parameters: DU145 cells, 96 hours after treatment, 1 μM to 100 μM; read-out: DU 145 potency (IC50)
Protocol: The effect of the compounds of the invention on tumor cells was determined by the assay described by Latham et al., Oncogene 12:827-837 (1996). Tumor cells K562 (chronic myelogenous leukaemia) or DU145 (prostate cancer) were plated in 12-well dishes at a cell density of 2.5×10^4 cells well. […] When necessary, the total number of viable cells was determined by trypsinizing the wells and counting the number of viable cells, as determined by trypan blue exclusion, using a hemacytometer. […]
pIC50: −log10 of the molar value.
List of pIC50 values.

Looking for the measured pIC50 of "O=C(C(=Cc1ccc(C(=O)N2CCN(CCO)CC2)cc1)SCc1ccc(F)cc1)c1ccc(F)c([N+](=O)[O-])c1" , can you help?
5.00 to 6.00

Looking for the measured pIC50 of "O=C(C(=Cc1ccc(Br)cc1)SCc1ccc(F)cc1)c1ccc(Br)cc1" , can you help?
4.30 to 4.60

Looking for the measured pIC50 of "O=C(C(=Cc1ccccc1OCc1ccccc1)SCc1ccc(F)cc1)c1ccc(Br)cc1" , can you help?
5.00 to 6.00

Looking for the measured pIC50 of "O=C(O)c1ccc(C(=O)C(=Cc2ccc(Cl)c([N+](=O)[O-])c2)SCc2ccccc2F)cc1" , can you help?
5.00 to 6.00

Looking for the measured pIC50 of "COc1cc(OC)c(C=C(SCc2ccc(Cl)cc2)C(=O)c2ccc([N+](=O)[O-])cc2)c(OC)c1" , can you help?
< 4.00

Looking for the measured pIC50 of "O=C(C(=Cc1ccc(Cl)cc1)SCc1ccc(Cl)cc1Cl)c1ccc(Cl)cc1" , can you help?
4.60 to 5.00

Looking for the measured pIC50 of "COc1ccc(C=C(SCc2ccc(Cl)cc2)C(=O)c2ccc(Cl)cc2)cc1" , can you help?
4.60 to 5.00

Others:
Looking for the measured pIC50 of "CN(C)c1ccc(C=C(SCc2ccc(Cl)cc2Cl)C(=O)c2ccc(Cl)cc2)cc1" , can you help?
4.00 to 4.30

----------
List of melting point values.

Record excerpt, results attached:
Looking for the measured melting point of "O=C(/C(=C\c1ccc(Br)cc1)S(=O)(=O)Cc1ccc(F)cc1)c1ccc(Br)cc1" , can you help?
164 to 168 °C

Looking for the measured melting point of "O=C(/C(=C\c1c[nH]c2ccccc12)S(=O)(=O)Cc1ccc(F)cc1)c1ccc(Cl)cc1" , can you help?
> 200 °C

Looking for the measured melting point of "Cc1ccc(CS(=O)(=O)/C(=C/c2sccc2C)C(=O)c2ccc(Cl)cc2)cc1" , can you help?
98 to 105 °C

Looking for the measured melting point of "Cc1ccc(/C=C(\C(=O)c2ccc(Cl)cc2)S(=O)(=O)Cc2ccc(Cl)cc2Cl)s1" , can you help?
115 to 117 °C

Looking for the measured melting point of "Cc1ccc(CS(=O)(=O)/C(=C/c2cc(C)cc(C)c2)C(=O)c2ccc(Cl)cc2)cc1" , can you help?
169 to 178 °C

Others:
Looking for the measured melting point of "CN(C)c1ccc(/C=C(\C(=O)c2ccc(C(=O)O)cc2)S(=O)(=O)Cc2ccc(Cl)cc2)cc1" , can you help?
176 to 180 °C

Looking for the measured melting point of "O=C(/C(=C\c1cc(Cl)cc(Cl)c1Cl)S(=O)(=O)Cc1ccc(Cl)cc1)c1ccc(Br)cc1" , can you help?
181 to 188 °C

Looking for the measured melting point of "O=C(/C(=C\c1ccc(Br)cc1)S(=O)(=O)Cc1ccccc1Cl)c1ccc(Cl)cc1" , can you help?
186 to 192 °C
